Biological target: panel of 203 kinases (Homo sapiens)
Construct: purchased DiscoverX (KINOMEscan)
Sequence (P54760 16-987): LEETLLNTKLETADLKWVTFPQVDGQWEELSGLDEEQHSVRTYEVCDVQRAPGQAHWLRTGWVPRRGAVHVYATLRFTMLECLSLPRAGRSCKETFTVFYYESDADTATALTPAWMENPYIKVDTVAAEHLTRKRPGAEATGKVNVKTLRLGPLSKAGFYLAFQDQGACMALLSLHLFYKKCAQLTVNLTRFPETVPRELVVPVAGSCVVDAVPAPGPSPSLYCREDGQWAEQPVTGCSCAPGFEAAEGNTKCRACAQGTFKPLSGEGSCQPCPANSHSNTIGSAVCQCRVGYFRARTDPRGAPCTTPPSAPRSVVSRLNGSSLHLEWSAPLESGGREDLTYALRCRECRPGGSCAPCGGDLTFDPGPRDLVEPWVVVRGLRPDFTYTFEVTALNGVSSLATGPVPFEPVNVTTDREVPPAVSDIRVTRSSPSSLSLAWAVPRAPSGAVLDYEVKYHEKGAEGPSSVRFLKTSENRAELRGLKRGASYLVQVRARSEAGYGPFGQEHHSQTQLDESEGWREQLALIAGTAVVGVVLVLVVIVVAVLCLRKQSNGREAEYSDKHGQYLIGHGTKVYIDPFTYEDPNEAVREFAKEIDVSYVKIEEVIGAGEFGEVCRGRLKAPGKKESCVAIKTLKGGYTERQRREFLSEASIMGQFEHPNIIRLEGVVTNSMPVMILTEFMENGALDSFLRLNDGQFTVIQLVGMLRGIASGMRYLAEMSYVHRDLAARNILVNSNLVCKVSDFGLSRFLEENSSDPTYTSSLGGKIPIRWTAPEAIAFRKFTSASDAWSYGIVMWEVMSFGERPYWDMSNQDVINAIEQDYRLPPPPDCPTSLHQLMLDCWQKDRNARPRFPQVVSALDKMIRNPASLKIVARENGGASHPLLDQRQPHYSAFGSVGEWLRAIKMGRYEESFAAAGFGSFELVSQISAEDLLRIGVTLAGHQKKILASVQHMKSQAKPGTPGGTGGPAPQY
Test: KINOMEscan competitive binding, whole panel
Conditions: 10 µM, n=1; kinase EPHB4; read-out: Percent inhibition EPHB4
Would you kindly list inhibition at 10 µM for each of these molecules?
Value and unit, in that order.

Example molecules with recorded inhibition at 10 µM:
{"Compound": "c1ccc(COc2cccc(-c3ccnc4[nH]ccc34)c2)cc1", "Target Desc": "panel of 203 kinases (Homo sapiens)", "inhibition at 10 µM": "0%"}
{"Compound": "Nc1ncc2c(-c3ccncc3)c[nH]c2n1", "Target Desc": "panel of 203 kinases (Homo sapiens)", "inhibition at 10 µM": "0%"}
{"Compound": "Cc1ccc(O)cc1Nc1ccnc(Nc2cccc(C(N)=O)c2)n1", "Target Desc": "panel of 203 kinases (Homo sapiens)", "inhibition at 10 µM": "100%"}

Below are some molecules; for each one, tell me its inhibition at 10 µM.
1. CN1CCN(c2ccc(Nc3nccc(-c4cnn5ncccc45)n3)cc2C#N)CC1
2. COc1ccc(Nc2nccc(-c3cnn4ncccc34)n2)cc1
3. Clc1ccc(Nc2ncc(-c3ccccc3)s2)cc1
4. C[C@@H](Oc1cc(-c2cnc3ccccn23)sc1C(N)=O)c1ccccc1Cl
5. Fc1cccc(COc2ccc(Nc3ncnc4c3CN(CCN3CCOCC3)CC4)cc2Cl)c1
6. Cc1ccc(O)cc1N(C)c1ccnc(Nc2cccc(S(N)(=O)=O)c2)n1
7. COc1cc(Nc2nccc(-c3sc(N)nc3-c3cccc(NC(=O)c4c(F)cccc4F)c3)n2)cc(OC)c1OC

## Result
1. 0%
2. 0%
3. 0%
4. 0%
5. 0%
6. 100%
7. 91.9%

----------
Molecular target: panel of 203 kinases (Homo sapiens)
Construct: purchased DiscoverX (KINOMEscan)
Test: KINOMEscan competitive binding, whole panel
Settings: 10 µM, n=1; kinase BRSK2; read-out: Percent inhibition BRSK2
Endpoint: inhibition at 10 µM (%)
One number for each entry, in %.

Example compounds with recorded inhibition at 10 µM:
{"Compound": "Fc1cccc(COc2ccc(Nc3ncnc4c3CN(CCN3CCOCC3)CC4)cc2Cl)c1 [Compound 6]", "inhibition at 10 µM / %": 0}
{"Compound": "Clc1ccc(Nc2ncc(-c3ccccc3)s2)cc1 [Compound 10]", "inhibition at 10 µM / %": 0}
{"Compound": "Cc1ccc(O)cc1N(C)c1ccnc(Nc2cccc(S(N)(=O)=O)c2)n1 [Compound 4]", "inhibition at 10 µM / %": 0}
{"Compound": "Cc1ccc(O)cc1Nc1ccnc(Nc2cccc(C(N)=O)c2)n1 [Compound 3]", "inhibition at 10 µM / %": 0}

Kindly review the next compound as well.
## Task Name the recorded inhibition at 10 µM of the item COc1ccc(Nc2nccc(-c3cnn4ncccc34)n2)cc1 [Compound 2] in your answer.
## Result 0

----------
Molecular target: PAK2 (Homo sapiens)
Construct: purchased DiscoverX (KINOMEscan)
Sequence (Q13177 whole entry): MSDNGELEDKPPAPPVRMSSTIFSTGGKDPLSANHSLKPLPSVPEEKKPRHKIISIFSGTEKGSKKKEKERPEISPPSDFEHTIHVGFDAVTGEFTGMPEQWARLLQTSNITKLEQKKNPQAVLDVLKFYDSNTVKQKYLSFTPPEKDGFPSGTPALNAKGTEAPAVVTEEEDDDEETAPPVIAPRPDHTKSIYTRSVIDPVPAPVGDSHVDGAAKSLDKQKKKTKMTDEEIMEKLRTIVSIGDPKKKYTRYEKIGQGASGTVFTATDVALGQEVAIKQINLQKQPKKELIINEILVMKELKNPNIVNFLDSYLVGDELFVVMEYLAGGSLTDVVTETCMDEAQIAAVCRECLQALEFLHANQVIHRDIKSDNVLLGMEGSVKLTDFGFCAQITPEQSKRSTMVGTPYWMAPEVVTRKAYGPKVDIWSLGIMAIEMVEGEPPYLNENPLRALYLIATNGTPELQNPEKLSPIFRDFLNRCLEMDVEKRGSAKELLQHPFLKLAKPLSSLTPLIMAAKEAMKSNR
Assay: KINOMEscan competitive binding
Conditions: n=1, read-out: Percent inhibition, PAK2
# cutoff 90% applies to inhibition at 10 µM; >= gives fulfilled, < gives not fulfilled

Known results for molecules:
{"Molecule": "Cc1ccc(O)cc1Nc1ccnc(Nc2cccc(C(N)=O)c2)n1 [Compound 3]", "Class Assignment": "fulfilled"}
{"Molecule": "CN1CCN(c2ccc(Nc3nccc(-c4cnn5ncccc45)n3)cc2C#N)CC1 [Compound 1]", "Class Assignment": "fulfilled"}
{"Molecule": "C[C@@H](Oc1cc(-c2cnc3ccccn23)sc1C(N)=O)c1ccccc1Cl [Compound 8]", "Class Assignment": "not fulfilled"}

## Task API: above_or_equal(metric=inhibition at 10 µM, cutoff=90%) for item Nc1ncc2c(-c3ccncc3)c[nH]c2n1 [Compound 11]
## Result not fulfilled

## Task API: above_or_equal(metric=inhibition at 10 µM, cutoff=90%) for item c1ccc(COc2cccc(-c3ccnc4[nH]ccc34)c2)cc1 [Compound 9]
## Result not fulfilled

## Task API: above_or_equal(metric=inhibition at 10 µM, cutoff=90%) for item Clc1ccc(Nc2ncc(-c3ccccc3)s2)cc1 [Compound 10]
## Result not fulfilled

## Task API: above_or_equal(metric=inhibition at 10 µM, cutoff=90%) for item Fc1cccc(COc2ccc(Nc3ncnc4c3CN(CCN3CCOCC3)CC4)cc2Cl)c1 [Compound 6]
## Result fulfilled

## Task API: above_or_equal(metric=inhibition at 10 µM, cutoff=90%) for item COc1ccc(Nc2nccc(-c3cnn4ncccc34)n2)cc1 [Compound 2]
## Result not fulfilled

## Task API: above_or_equal(metric=inhibition at 10 µM, cutoff=90%) for item Cc1ccc(O)cc1N(C)c1ccnc(Nc2cccc(S(N)(=O)=O)c2)n1 [Compound 4]
## Result fulfilled

----------
Target: panel of 203 kinases (Homo sapiens, UniProt Q8TD19)
Construct: purchased DiscoverX (KINOMEscan)
Sequence (Q8TD19 whole entry): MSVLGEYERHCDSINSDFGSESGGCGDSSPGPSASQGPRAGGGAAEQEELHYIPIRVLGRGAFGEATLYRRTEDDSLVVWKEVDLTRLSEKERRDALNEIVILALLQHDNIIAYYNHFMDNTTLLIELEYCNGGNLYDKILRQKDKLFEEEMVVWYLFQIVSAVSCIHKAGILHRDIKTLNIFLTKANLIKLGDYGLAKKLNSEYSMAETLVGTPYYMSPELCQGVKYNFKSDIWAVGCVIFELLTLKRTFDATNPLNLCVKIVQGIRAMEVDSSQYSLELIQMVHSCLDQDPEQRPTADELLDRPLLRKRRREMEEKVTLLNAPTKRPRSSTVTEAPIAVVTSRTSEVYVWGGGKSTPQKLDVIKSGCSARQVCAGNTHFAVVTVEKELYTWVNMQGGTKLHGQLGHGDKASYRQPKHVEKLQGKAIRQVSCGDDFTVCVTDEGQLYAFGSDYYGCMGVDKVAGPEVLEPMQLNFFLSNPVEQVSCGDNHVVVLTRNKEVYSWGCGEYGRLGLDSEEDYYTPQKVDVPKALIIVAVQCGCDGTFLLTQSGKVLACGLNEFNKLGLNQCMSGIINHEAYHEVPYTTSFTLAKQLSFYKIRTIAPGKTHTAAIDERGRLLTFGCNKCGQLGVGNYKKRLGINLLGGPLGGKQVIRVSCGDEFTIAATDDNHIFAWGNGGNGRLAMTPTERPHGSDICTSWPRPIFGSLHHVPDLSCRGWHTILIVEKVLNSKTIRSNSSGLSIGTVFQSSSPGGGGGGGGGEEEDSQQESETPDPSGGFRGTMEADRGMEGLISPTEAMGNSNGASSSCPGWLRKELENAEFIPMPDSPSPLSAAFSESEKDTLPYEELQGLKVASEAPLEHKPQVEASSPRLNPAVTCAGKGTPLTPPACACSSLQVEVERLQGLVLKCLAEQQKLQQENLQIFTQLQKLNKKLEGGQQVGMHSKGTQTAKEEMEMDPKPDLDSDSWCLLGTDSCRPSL
Assay: KINOMEscan competitive binding, whole panel
Details: 10 µM, n=1; kinase NEK9; read-out: Percent inhibition NEK9
Endpoint: inhibition at 10 µM (%)
Numbers only, in %.

{"Compound": "CN1CCN(c2ccc(Nc3nccc(-c4cnn5ncccc45)n3)cc2C#N)CC1", "Unit Label": "%", "Recorded Measurement": 99.2}
{"Compound": "Fc1cccc(COc2ccc(Nc3ncnc4c3CN(CCN3CCOCC3)CC4)cc2Cl)c1", "Unit Label": "%", "Recorded Measurement": 0}
{"Compound": "Cc1ccc(O)cc1N(C)c1ccnc(Nc2cccc(S(N)(=O)=O)c2)n1", "Unit Label": "%", "Recorded Measurement": 0}
{"Compound": "Clc1ccc(Nc2ncc(-c3ccccc3)s2)cc1", "Unit Label": "%", "Recorded Measurement": 0}
{"Compound": "Nc1ncc2c(-c3ccncc3)c[nH]c2n1", "Unit Label": "%", "Recorded Measurement": 0}

Below are some compounds; for each one, tell me its inhibition at 10 µM.
1. Cc1ccc(O)cc1Nc1ccnc(Nc2cccc(C(N)=O)c2)n1
2. c1ccc(COc2cccc(-c3ccnc4[nH]ccc34)c2)cc1
3. COc1cc(Nc2nccc(-c3sc(N)nc3-c3cccc(NC(=O)c4c(F)cccc4F)c3)n2)cc(OC)c1OC
4. C[C@@H](Oc1cc(-c2cnc3ccccn23)sc1C(N)=O)c1ccccc1Cl
5. COc1ccc(Nc2nccc(-c3cnn4ncccc34)n2)cc1

## Result
1. 0
2. 0
3. 88.9
4. 94.7
5. 100

----------
Would you kindly list inhibition at 10 µM for each of these molecules?
Target: AXL (Homo sapiens)
Construct: purchased DiscoverX (KINOMEscan)
Sequence (P30530 26-894): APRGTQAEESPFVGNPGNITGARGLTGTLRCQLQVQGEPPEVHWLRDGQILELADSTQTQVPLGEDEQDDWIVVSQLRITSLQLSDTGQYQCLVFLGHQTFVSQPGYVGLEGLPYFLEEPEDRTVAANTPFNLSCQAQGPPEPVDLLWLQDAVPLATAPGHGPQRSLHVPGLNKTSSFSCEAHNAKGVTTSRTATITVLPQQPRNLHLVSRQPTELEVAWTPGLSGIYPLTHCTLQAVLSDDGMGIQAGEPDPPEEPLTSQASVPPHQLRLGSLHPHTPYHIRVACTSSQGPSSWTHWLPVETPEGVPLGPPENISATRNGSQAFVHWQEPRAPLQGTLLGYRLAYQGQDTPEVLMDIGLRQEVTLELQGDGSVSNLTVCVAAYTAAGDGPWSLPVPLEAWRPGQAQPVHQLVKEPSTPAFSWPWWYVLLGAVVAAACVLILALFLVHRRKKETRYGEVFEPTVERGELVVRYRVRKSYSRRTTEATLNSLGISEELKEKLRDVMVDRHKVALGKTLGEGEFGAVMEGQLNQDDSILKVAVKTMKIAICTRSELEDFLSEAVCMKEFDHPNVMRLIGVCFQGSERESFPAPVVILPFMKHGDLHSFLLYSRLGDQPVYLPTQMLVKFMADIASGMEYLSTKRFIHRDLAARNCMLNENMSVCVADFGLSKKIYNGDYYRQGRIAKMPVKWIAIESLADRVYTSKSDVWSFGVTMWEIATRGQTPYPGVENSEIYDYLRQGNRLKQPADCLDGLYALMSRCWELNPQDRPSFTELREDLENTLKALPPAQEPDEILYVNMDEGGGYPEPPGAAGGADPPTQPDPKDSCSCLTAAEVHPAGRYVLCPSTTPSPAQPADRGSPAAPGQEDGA
Assay: KINOMEscan competitive binding
Conditions: 10 µM, n=1; kinase AXL; read-out: Percent inhibition AXL
Give bare numbers, in %.

{"Compound": "COc1ccc(Nc2nccc(-c3cnn4ncccc34)n2)cc1", "Target Desc": "AXL (Homo sapiens)", "inhibition at 10 µM / %": 77.8}
{"Compound": "Clc1ccc(Nc2ncc(-c3ccccc3)s2)cc1", "Target Desc": "AXL (Homo sapiens)", "inhibition at 10 µM / %": 0}
{"Compound": "Cc1ccc(O)cc1Nc1ccnc(Nc2cccc(C(N)=O)c2)n1", "Target Desc": "AXL (Homo sapiens)", "inhibition at 10 µM / %": 0}

Below are some molecules; for each one, tell me its inhibition at 10 µM.
1. Cc1ccc(O)cc1N(C)c1ccnc(Nc2cccc(S(N)(=O)=O)c2)n1
2. C[C@@H](Oc1cc(-c2cnc3ccccn23)sc1C(N)=O)c1ccccc1Cl

## Result
[0, 89]

The origin of these recorded values is paper PMC9927415.
